Each entry below lists one item and its recorded viability, T/C value.
- System: MDA-MB-231 complex spheroid viability
- testSummary: Anticancer human tumor MDA-MB-231/ATCC cell line growth inhibition;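 note: drug exposure lasted 7 days starting on day 3 of spheroid growth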
- runConditions: second compound 0.1 µM; first compound 0.00316 µM; active compounds read low
- Excerpt: Multicellular complex tumor spheroid response to LSD1 Inhibitor Iadademstat in combination with a variety of drugs and investigational agents in selected tumor cell lines The current study was undertaken to assess response to LSD1 inhibitors in combination with standard-of-care drugs and investigational agents in solid tumor complex spheroid models as well as in the K-562 leukemia. […] Compounds. […] If the clinical Cmax for an agent had not been determined, the highest concentration tested was 10 microM. […]

Observe how each entry below is paired with its result.
compound	recordedMeasurement
O=C(C=Cn1cnc(-c2cc(C(F)(F)F)cc(C(F)(F)F)c2)n1)NNc1cnccn1 + NC1CCC(NC2CC2c2ccccc2)CC1	61.7%
CC(C)CC(NC(=O)CNC(=O)c1cc(Cl)ccc1Cl)B1OC(=O)CC(CC(=O)O)(C(=O)O)O1 (centres undefined) + NC1CC1c1ccc(-c2cccc(O)c2)cc1	62.9%
Nc1ncn(C2CC(O)C(CO)O2)c(=O)n1 (centres undefined) + NC1CC1c1ccc(-c2cccc(O)c2)cc1	74.5%

Here's the next entry for you.
Task: What does the record list as viability, T/C for CC(C)CC(NC(=O)CNC(=O)c1cc(Cl)ccc1Cl)B1OC(=O)CC(CC(=O)O)(C(=O)O)O1 (centres undefined) + NC1CCC(NC2CC2c2ccccc2)CC1 ?
Result: 85%

----------
- System: MDA-MB-231 complex spheroid viability
- testSummary: Anticancer human tumor MDA-MB-231/ATCC cell line growth inhibition;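 note: drug exposure lasted 7 days starting on day 3 of spheroid growth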
- runConditions: second compound 0.316 µM; first compound 0.01 µM; active compounds read low
Listed here are compounds together with their documented viability, T/C.
Numbers only; they are read as %.

compound	endpointName	unitsOfMeasure	recordedMeasurement
Nc1ncn(C2CC(O)C(CO)O2)c(=O)n1 (configuration not stated) + NC1CC1c1ccc(-c2cccc(O)c2)cc1	viability, T/C	%	63.5
COc1cc(Nc2ncc3c(n2)-c2ccc(Cl)cc2C(c2c(F)cccc2OC)=NC3)ccc1C(=O)O + NC1CCC(NC2CC2c2ccccc2)CC1	viability, T/C	%	65.5
CC[C@@]1(O)C(=O)OCc2c1cc1n(c2=O)Cc2cc3c(CN(C)C)c(O)ccc3nc2-1 + NC1CCC(NC2CC2c2ccccc2)CC1	viability, T/C	%	28.9
Nc1ncn(C2CC(O)C(CO)O2)c(=O)n1 (configuration not stated) + NC1CCC(NC2CC2c2ccccc2)CC1	viability, T/C	%	96.7
CC1COCCN1c1cc(-c2ccnn2C)c2ccnc(-c3ccn[nH]3)c2n1 (configuration not stated) + NC1CCC(NC2CC2c2ccccc2)CC1	viability, T/C	%	73.8
COc1cc(Nc2ncc3c(n2)-c2ccc(Cl)cc2C(c2c(F)cccc2OC)=NC3)ccc1C(=O)O + NC1CC1c1ccc(-c2cccc(O)c2)cc1	viability, T/C	%	40

Task: Value lookup for viability, T/C; key = O=C(C=Cn1cnc(-c2cc(C(F)(F)F)cc(C(F)(F)F)c2)n1)NNc1cnccn1 + NC1CC1c1ccc(-c2cccc(O)c2)cc1
Result: 27.3

Task: Same thing, different compound: O=C(C=Cn1cnc(-c2cc(C(F)(F)F)cc(C(F)(F)F)c2)n1)NNc1cnccn1 + NC1CCC(NC2CC2c2ccccc2)CC1
Result: 36.2

Task: What do you have for CC1COCCN1c1cc(-c2ccnn2C)c2ccnc(-c3ccn[nH]3)c2n1 (configuration not stated) + NC1CC1c1ccc(-c2cccc(O)c2)cc1 ?
Result: 28.7

Task: Cool, now CC(C)CC(NC(=O)CNC(=O)c1cc(Cl)ccc1Cl)B1OC(=O)CC(CC(=O)O)(C(=O)O)O1 (configuration not stated) + NC1CC1c1ccc(-c2cccc(O)c2)cc1
Result: 11.8

Task: Same question, Cn1ncnc1C1c2n[nH]c(=O)c3cc(F)cc(c23)NC1c1ccc(F)cc1 (configuration not stated) + NC1CCC(NC2CC2c2ccccc2)CC1 this time
Result: 80.7

Task: Also check CC[C@@]1(O)C(=O)OCc2c1cc1n(c2=O)Cc2cc3c(CN(C)C)c(O)ccc3nc2-1 + NC1CC1c1ccc(-c2cccc(O)c2)cc1
Result: 25.3
